conditions: in isopropanol, 288.15 K
assay.metric: solubility (mole fraction)
The response must contain the number and no unit.

solubility (mole fraction) in this record for CCCCCCCCCCCCCCCCOc1nc2ccc(C)cc2c(=O)o1 : 0.0979

###

conditions: in isopropanol, 303.15 K
assay.metric: solubility (mole fraction)
Answer using only a numeral; do not append any unit.

response.value for CCCCCCCCCCCCCCCCOc1nc2ccc(C)cc2c(=O)o1 (field: solubility (mole fraction)) = 0.158

###

details: in acetone, 323.15 K
assay.metric: solubility (mole fraction)
// return a plain number; no unit text

So, CCCCCCCCCCCCCCCCOc1nc2ccc(C)cc2c(=O)o1 ? Its solubility (mole fraction) was 0.327

###

settings: in acetonitrile, 323.15 K
assay.metric: solubility (mole fraction)
API note: the answer field is a bare number with no unit suffix.

For reference, reported solubility (mole fraction) for CCCCCCCCCCCCCCCCOc1nc2ccc(C)cc2c(=O)o1 stands at 0.259

###

details: in isopropanol, 283.15 K
assay.metric: solubility (mole fraction)
Reply briefly: the number, and no unit.

The reported value for CCCCCCCCCCCCCCCCOc1nc2ccc(C)cc2c(=O)o1 in terms of solubility (mole fraction) is 0.0829

###

settings: in acetonitrile, 303.15 K
assay.metric: solubility (mole fraction)
Form field (numeric): enter value without unit.

Entry CCCCCCCCCCCCCCCCOc1nc2ccc(C)cc2c(=O)o1 — recorded solubility (mole fraction) = 0.144

###

settings: in acetonitrile, 318.15 K
assay.metric: solubility (mole fraction)
A bare number is all that is needed in reply.

In plain terms, CCCCCCCCCCCCCCCCOc1nc2ccc(C)cc2c(=O)o1 has a documented solubility (mole fraction) of 0.222

###

details: in isopropanol, 293.15 K
assay.metric: solubility (mole fraction)
Give the value as a plain number.

According to the records, this compound CCCCCCCCCCCCCCCCOc1nc2ccc(C)cc2c(=O)o1 displays solubility (mole fraction) of 0.116

###

details: in acetonitrile, 283.15 K
assay.metric: solubility (mole fraction)
Answer with the value's number alone.

According to the records, this compound CCCCCCCCCCCCCCCCOc1nc2ccc(C)cc2c(=O)o1 displays solubility (mole fraction) of 0.0759

###

conditions: in isopropanol, 278.15 K
assay.metric: solubility (mole fraction)
I'd appreciate a reply containing only the number, no unit.

Documented solubility (mole fraction) of CCCCCCCCCCCCCCCCOc1nc2ccc(C)cc2c(=O)o1 : 0.0702

###

details: in acetone, 318.15 K
assay.metric: solubility (mole fraction)
Could you respond with only the numeric value?

What the record says about CCCCCCCCCCCCCCCCOc1nc2ccc(C)cc2c(=O)o1 : solubility (mole fraction) is 0.284

###

conditions: in acetone, 308.15 K
assay.metric: solubility (mole fraction)
Respond with the number and no other words.

Consider CCCCCCCCCCCCCCCCOc1nc2ccc(C)cc2c(=O)o1 . Its measured solubility (mole fraction) is 0.208

###

details: in isopropanol, 318.15 K
assay.metric: solubility (mole fraction)
When you answer, write just the number.

Lab note: CCCCCCCCCCCCCCCCOc1nc2ccc(C)cc2c(=O)o1 gave solubility (mole fraction) of 0.241

###

conditions: in isopropanol, 323.15 K
assay.metric: solubility (mole fraction)
// no unit, no text: just the number

Measured solubility (mole fraction) of CCCCCCCCCCCCCCCCOc1nc2ccc(C)cc2c(=O)o1 : 0.28

###

conditions: in acetone, 298.15 K
assay.metric: solubility (mole fraction)
Lab note: record just the number, no unit beside it.

Record summary for CCCCCCCCCCCCCCCCOc1nc2ccc(C)cc2c(=O)o1 : reported solubility (mole fraction) = 0.157

###

conditions: in acetonitrile, 293.15 K
assay.metric: solubility (mole fraction)

Looking up CCCCCCCCCCCCCCCCOc1nc2ccc(C)cc2c(=O)o1 , I found its solubility (mole fraction) recorded as 0.106

###

details: in isopropanol, 313.15 K
assay.metric: solubility (mole fraction)
I'd appreciate a reply containing only the number, no unit.

GET /value?item= CCCCCCCCCCCCCCCCOc1nc2ccc(C)cc2c(=O)o1 &field=solubility (mole fraction) returns 0.207

###

settings: in acetone, 303.15 K
assay.metric: solubility (mole fraction)
Could you keep your reply to the number by itself?

Value of measured solubility (mole fraction) for the entry CCCCCCCCCCCCCCCCOc1nc2ccc(C)cc2c(=O)o1 : 0.18

Numbers sourced from BigSolDB 2.1.
